test.system: aldose reductase derived from human muscle cells (Homo sapiens)
Construct: purchased Wako Pure Chemical Industries
run.description: Inhibitory activities of aldose reductase
Format: biochemical
study.conditions: final concentration 10 μM; average of two values; read-out: Inhibitory Ratio (%) of Aldose Reductase
value.kind: inhibition at 10 µM

Completed entries (count: 4):
CC(C)=CCCC(C)(O)C1Cc2c(ccc(C(=O)/C=C/c3ccc(O)cc3)c2O)O1 (centres unmarked) [TB3]    14.2%
CCOC(C)(C)C(O)CC/C(C)=C/Cc1c(O)ccc(C(=O)/C=C/c2ccc(O)cc2)c1O (centres unmarked) [TB6]    41.9%
COc1ccc(C(=O)/C=C/c2ccc(O)cc2)c2c1CC(C(C)(C)O)O2 (centres unmarked) [TB4]    57.4%
C/C(=C\Cc1c(O)ccc(C(=O)/C=C/c2ccc(O)cc2)c1O)CCC(O)C(C)(C)O (centres unmarked) [TB5]    35.1%

What value of measured inhibition at 10 µM is listed for COc1ccc(C(=O)/C=C/c2ccc(O)cc2)c(O)c1C/C=C(\C)C/C=C/C(C)(C)OO [TB8] ?
17.9%

----------
System: RAW 264.7 cells
run.description: Suppressive activities of NO production (LPS-induced, NO2- by Griess reagent)
Type: cell-based
study.conditions: Mus musculus, RAW264.7, 10 μM, LPS, 16 hours, read-out: Suppressive Ability for Induction of NO Production by LPS (%)
value.kind: inhibition at 10 µM (%)
Numbers only, in %.

C/C(=C\Cc1c(O)ccc(C(=O)/C=C/c2ccc(O)cc2)c1O)CCC(O)C(C)(C)O (stereo not drawn)    35.2
COc1ccc(C(=O)/C=C/c2ccc(O)cc2)c(O)c1C/C=C(\C)C/C=C/C(C)(C)OO    18.7
CC(C)CCc1c(O)ccc(C(=O)/C=C/c2ccc(O)cc2)c1O    19.3
COc1ccc(C(=O)/C=C/c2ccc(O)cc2)c2c1CC(C(C)(C)O)O2 (stereo not drawn)    56.4
C=C(C)C(CC/C(C)=C/Cc1c(OC)ccc(C(=O)/C=C/c2ccc(O)cc2)c1O)OO (stereo not drawn)    29.2

List the reported inhibition at 10 µM of each molecule below.
1. COc1ccc(C(=O)/C=C/c2ccc(O)cc2)c(O)c1CC1C2(C)CCC(O2)C1(C)C (stereo not drawn)
2. CC(C)=CCCC(C)(O)C1Cc2c(ccc(C(=O)/C=C/c3ccc(O)cc3)c2O)O1 (stereo not drawn)
3. COc1ccc(C(=O)/C=C/c2ccc(O)cc2)c(O)c1C/C=C(\C)C/C=C/C(C)(C)O
4. CCOC(C)(C)C(O)CC/C(C)=C/Cc1c(O)ccc(C(=O)/C=C/c2ccc(O)cc2)c1O (stereo not drawn)

1. 23.9
2. 9.5
3. 31.6
4. 29.4

----------
test.system: aldose reductase derived from human muscle cells (Homo sapiens)
Construct: purchased Wako Pure Chemical Industries
run.description: Inhibitory activities of aldose reductase
Type: biochemical
study.conditions: final concentration 10 μM; average of two values; read-out: Inhibitory Ratio (%) of Aldose Reductase
value.kind: inhibition at 10 µM (%)
Answers are plain numbers, in %.

Completed entries (count: 3):
COc1ccc(C(=O)/C=C/c2ccc(O)cc2)c(O)c1CC1C2(C)CCC(O2)C1(C)C (stereo not shown)    20.1
CC(C)CCc1c(O)ccc(C(=O)/C=C/c2ccc(O)cc2)c1O    47.8
C=C(C)C(CC/C(C)=C/Cc1c(OC)ccc(C(=O)/C=C/c2ccc(O)cc2)c1O)OO (stereo not shown)    31.6

Could you now consider this next molecule?
What value of measured inhibition at 10 µM is listed for COc1ccc(C(=O)/C=C/c2ccc(O)cc2)c(O)c1C/C=C(\C)C/C=C/C(C)(C)O ?
11.9

----------
test.system: aldose reductase derived from human muscle cells (Homo sapiens, UniProt P15121)
Construct: purchased Wako Pure Chemical Industries
run.description: Inhibitory activities of aldose reductase
Assay type: biochemical
study.conditions: final concentration 40 μM; average of two values; read-out: Inhibitory Ratio (%) of Aldose Reductase
value.kind: inhibition at 40 µM (%)
Numbers only, in %.

CC(C)=CCCC(C)(O)C1Cc2c(ccc(C(=O)/C=C/c3ccc(O)cc3)c2O)O1 (stereo not shown)    53.8

List the reported inhibition at 40 µM of each compound below.
1. C=C(C)C(CC/C(C)=C/Cc1c(OC)ccc(C(=O)/C=C/c2ccc(O)cc2)c1O)OO (stereo not shown)
2. C/C(=C\Cc1c(O)ccc(C(=O)/C=C/c2ccc(O)cc2)c1O)CCC(O)C(C)(C)O (stereo not shown)
3. COc1ccc(C(=O)/C=C/c2ccc(O)cc2)c(O)c1CC1C2(C)CCC(O2)C1(C)C (stereo not shown)
4. COc1ccc(C(=O)/C=C/c2ccc(O)cc2)c(O)c1C/C=C(\C)C/C=C/C(C)(C)O
5. COc1ccc(C(=O)/C=C/c2ccc(O)cc2)c(O)c1C/C=C(\C)C/C=C/C(C)(C)OO
6. CCOC(C)(C)C(O)CC/C(C)=C/Cc1c(O)ccc(C(=O)/C=C/c2ccc(O)cc2)c1O (stereo not shown)

[57.3, 66.7, 54.3, 26.7, 44.2, 66.8]

----------
test.system: aldose reductase derived from human muscle cells (Homo sapiens, UniProt P15121)
Construct: purchased Wako Pure Chemical Industries
run.description: Inhibitory activities of aldose reductase
Format: biochemical
study.conditions: final concentration 20 μM; average of two values; read-out: Inhibitory Ratio (%) of Aldose Reductase
For each of the compounds below, state its inhibition at 20 µM.
Give bare numbers, in %.

Completed entries (count: 2):
CCOC(C)(C)C(O)CC/C(C)=C/Cc1c(O)ccc(C(=O)/C=C/c2ccc(O)cc2)c1O (stereo not drawn)    56.5
COc1ccc(C(=O)/C=C/c2ccc(O)cc2)c2c1CC(C(C)(C)O)O2 (stereo not drawn)    57.9

List the reported inhibition at 20 µM of each compound below.
1. CC(C)CCc1c(O)ccc(C(=O)/C=C/c2ccc(O)cc2)c1O
2. C/C(=C\Cc1c(O)ccc(C(=O)/C=C/c2ccc(O)cc2)c1O)CCC(O)C(C)(C)O (stereo not drawn)
3. COc1ccc(C(=O)/C=C/c2ccc(O)cc2)c(O)c1C/C=C(\C)C/C=C/C(C)(C)O
4. CC(C)=CCCC(C)(O)C1Cc2c(ccc(C(=O)/C=C/c3ccc(O)cc3)c2O)O1 (stereo not drawn)
5. COc1ccc(C(=O)/C=C/c2ccc(O)cc2)c(O)c1CC1C2(C)CCC(O2)C1(C)C (stereo not drawn)

[68.7, 49.7, 16.2, 30.1, 33.8]

List the reported inhibition at 20 µM of each compound below.
1. COc1ccc(C(=O)/C=C/c2ccc(O)cc2)c(O)c1C/C=C(\C)C/C=C/C(C)(C)OO
2. C=C(C)C(CC/C(C)=C/Cc1c(OC)ccc(C(=O)/C=C/c2ccc(O)cc2)c1O)OO (stereo not drawn)

32.7
44.7
